# Test system: NADPH-cytochrome P450 reductase
# test-description: Stability on rat hepatic NADPH-cytochrome P450 reductase: 7-deoxyaglycone formed (Table 7)
# Assay type: in vitro ADME
# conditions: 25° C., 25 min., nitrogen; substrate 0.1 mM, NADPH 0.2 mM, enzyme 4.6 μg./ml, pH 8.0
Label Fulfilled when Product (7-Deoxyaglycone) is at or above 40 nmoles/tube; anything below gets Not fulfilled.

compound: COc1cccc2c1C(=O)c1c(O)c3c(c(O)c1C2=O)C[C@@](O)(C(=O)COC1CCCCO1)C[C@@H]3O[C@H]1C[C@H](N)[C@H](OC2CCCCO2)[C@H](C)O1 (single isomer, unassigned; isomer a) [4',14-di-O-PAa]
tested-on: NADPH-cytochrome P450 reductase
classification: Not fulfilled

Q: In plain terms: is recorded Product (7-Deoxyaglycone) at least 40 nmoles/tube for COc1cccc2c1C(=O)c1c(O)c3c(c(O)c1C2=O)C[C@@](O)(C(C)=O)C[C@@H]3O[C@H]1C[C@H](N)[C@H](OC2CCCCO2)[C@H](C)O1 (single isomer, unassigned; isomer a) [4'-O-PDa] ?
Result: Not fulfilled

Q: Confirm if Product (7-Deoxyaglycone) reported for the compound COc1cccc2c1C(=O)c1c(O)c3c(c(O)c1C2=O)C[C@@](O)(C(C)=O)C[C@@H]3O[C@H]1C[C@H](N)[C@H](OC2CCCCO2)[C@H](C)O1 (single isomer, unassigned; isomer b) [4'-O-PDb] is 40 nmoles/tube or above.
Result: Fulfilled

Q: Is the recorded value of Product (7-Deoxyaglycone) equal to or greater than 40 nmoles/tube for this compound? COc1cccc2c1C(=O)c1c(O)c3c(c(O)c1C2=O)C[C@@](O)(C(=O)COC1CCCCO1)C[C@@H]3O[C@H]1C[C@H](N)[C@H](OC2CCCCO2)[C@H](C)O1 (single isomer, unassigned; isomer b) [4',14-di-O-PAb]
Result: Not fulfilled

Q: Confirm if Product (7-Deoxyaglycone) reported for the compound COc1cccc2c1C(=O)c1c(O)c3c(c(O)c1C2=O)C[C@@](O)(C(=O)COC1CCCCO1)C[C@@H]3O[C@H]1C[C@H](N)[C@H](O)[C@H](C)O1 (some centres unmarked) [Example 14-O-PA, 14-O-tetrahydropyranyl adriamycin] is 40 nmoles/tube or above.
Result: Not fulfilled

Reference source: patent US4303785A
